test: Volume of distribution at steady state after intravenous administration to rats; format: in vivo; settings: rat, plasma
PROPERTY MEASURED: Vd (L/kg)
Numeric answer only, unit L/kg assumed.

What value of measured Vd is listed for Cc1cc(N2CCN([C@@H]3CN[C@H](C(=O)N4CCSC4)C3)CC2)n(-c2ccccc2)n1 ? 8.9
